- experimental-target: Gal(a1-3)Gal(b1-4)GlcNAc(b1-2)Man(a1-3)[Gal(a1-3)Gal(b1-4)GlcNAc(b1-2)Man(a1-6)]Man(b1-4)GlcNAc(b1-4)GlcNAc
- measurement-protocol: glycan array binding signal (z-score within array); higher = stronger binding
- test-settings: glycan notation: IUPAC condensed, linker removed
Only a selection was taken, and the strongest signals are over-represented in it overall.
measurement-kind: glycan array binding signal (z-score)

binder="Epa13 (Candida glabrata) (protein) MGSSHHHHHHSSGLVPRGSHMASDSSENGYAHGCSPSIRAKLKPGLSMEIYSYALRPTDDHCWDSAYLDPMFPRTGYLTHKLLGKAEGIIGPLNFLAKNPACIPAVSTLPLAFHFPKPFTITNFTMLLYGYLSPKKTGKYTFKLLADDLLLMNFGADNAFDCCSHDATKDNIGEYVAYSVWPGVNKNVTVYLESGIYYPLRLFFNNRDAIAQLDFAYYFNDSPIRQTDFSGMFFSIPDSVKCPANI" measurement_kind="glycan array binding signal (z-score)" readout_number=4.93
binder="Epa12 (Candida glabrata) (protein) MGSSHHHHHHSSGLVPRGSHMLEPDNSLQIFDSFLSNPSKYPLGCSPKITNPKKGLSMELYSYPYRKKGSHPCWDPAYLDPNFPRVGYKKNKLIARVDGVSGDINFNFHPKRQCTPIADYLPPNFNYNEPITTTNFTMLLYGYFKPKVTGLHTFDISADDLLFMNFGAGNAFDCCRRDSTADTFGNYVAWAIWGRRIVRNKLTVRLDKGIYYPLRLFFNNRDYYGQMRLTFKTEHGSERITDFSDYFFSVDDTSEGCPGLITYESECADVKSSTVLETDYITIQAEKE" measurement_kind="glycan array binding signal (z-score)" readout_number=2.04
